Source: ChEMBL document CHEMBL1123199

experimental_protocol: Antifungal activity against Trichophyton mentagrophytes.
Type: functional, Arthroderma benhamiae
condition: Trichophyton benhamiae
Criterion: MIC strictly less than 2 µg/mL. Met: Met. Not met: Not met.

Known results for compounds:
>  <compound>
COc1ccc(CN(C)C/C=C/c2ccccc2)c2ccccc12

>  <assigned_category>
Met

$$$$
>  <compound>
CN(CC/C=C/c1ccccc1)Cc1cccc2ccccc12

>  <assigned_category>
Not met

$$$$
>  <compound>
CN(C/C=C/CCc1ccccc1)Cc1cccc2ccccc12

>  <assigned_category>
Met

$$$$

Input CN(C/C=C/c1ccccc1)CCc1cccc2ccccc12 ; condition: MIC strictly below 2 µg/mL. Does it hold? Not met

Take the compound CN(C/C=C/c1ccccc1)Cc1c(O)ccc2ccccc12 and say whether its MIC is less than 2 µg/mL. Not met

====

Test system: Aspergillus fumigatus
experimental_protocol: Antifungal activity measured against Aspergillus fumigatus
Format: functional
property_measured: MIC (µg/mL)
Give the value, in units of µg/mL, as a plain number.

Could you share which MIC value was measured for CN(C/C=C/c1ccccc1)Cc1cccc2ccccc12 [NAFTIFINE] ? 12.5

Data request, read-out MIC, for CN(C/C=C/C1=CCCC1)Cc1cccc2ccccc12 50

====

Test system: Aspergillus fumigatus
experimental_protocol: Antifungal activity measured against Aspergillus fumigatus
Assay type: functional
property_measured: MIC

Suppose we examine the molecule O=S(=O)(C/C=C/c1ccccc1)Cc1cccc2ccccc12 ; what MIC value has been reported? > 100 µg/mL

Please give the measured MIC for this molecule: CN(C/C=C/c1ccccc1)Cc1ccc2ccccc2c1 > 100 µg/mL

Would you mind telling me what MIC value was observed for CC(/C=C/c1ccccc1)N(C)Cc1cccc2ccccc12 (configuration not stated) ? > 100 µg/mL

Could you tell me which MIC is on file for COc1ccc2c(CN(C)C/C=C/c3ccccc3)cccc2c1 ? > 100 µg/mL

Entry CN(CCCc1ccccc1)Cc1cccc2ccccc12 has what MIC? > 100 µg/mL

Reported MIC, molecule CN(C/C=C/c1ccccc1)C(c1ccccc1)c1ccccc1 : ____ > 100 µg/mL

Reported MIC for C/C(=C\CN(C)Cc1cccc2ccccc12)c1ccccc1 : what is it? > 100 µg/mL

Request the reported MIC associated with COc1ccc2ccccc2c1CN(C)C/C=C/c1ccccc1 > 100 µg/mL

MIC lookup needed for CN(C/C=C/c1ccccc1)c1cccc2ccccc12 , thanks. > 100 µg/mL

I'd like to know its MIC. The molecule in question is CN(C/C=C/C(=O)OCc1ccccc1)Cc1cccc2ccccc12 > 100 µg/mL

Request the reported MIC associated with C=CCN(C)Cc1cccc2ccccc12 > 100 µg/mL

MIC lookup needed for Cc1ccc(/C=C/CN(C)Cc2cccc3ccccc23)cc1 , thanks. > 100 µg/mL

====

System: Aspergillus fumigatus
experimental_protocol: Antifungal activity measured against Aspergillus fumigatus
Format: functional
property_measured: MIC (µg/mL)
Response body: numeric value in µg/mL, unit text excluded.

Some entries whose results are on file:
>  <structure_as_smiles>
CCCC/C=C/C/C=C/CN(C)Cc1cccc2ccccc12

>  <property_measured>
MIC

>  <quantitative_readout>
25

$$$$
>  <structure_as_smiles>
CCCCCOC(=O)/C=C/CN(C)Cc1cccc2ccccc12

>  <property_measured>
MIC

>  <quantitative_readout>
50

$$$$

I have this compound here, CN(CC/C=C/c1ccccc1)Cc1cccc2ccccc12 , and I need its recorded MIC. 100
